biological target: KCNQ2/3 channels (Homo sapiens, UniProt O43525+O43526); construct: expressed in transfected cells; test: Fluorescence assay using a voltage sensitive dye (fluorimetry); assay type: cell-based; conditions: CHO-K1 cells expressing KCNQ2/3; IC50 where % efficacy is negative; read-out: Fluorimetry EC50/IC50
Sequence (O43526 whole entry): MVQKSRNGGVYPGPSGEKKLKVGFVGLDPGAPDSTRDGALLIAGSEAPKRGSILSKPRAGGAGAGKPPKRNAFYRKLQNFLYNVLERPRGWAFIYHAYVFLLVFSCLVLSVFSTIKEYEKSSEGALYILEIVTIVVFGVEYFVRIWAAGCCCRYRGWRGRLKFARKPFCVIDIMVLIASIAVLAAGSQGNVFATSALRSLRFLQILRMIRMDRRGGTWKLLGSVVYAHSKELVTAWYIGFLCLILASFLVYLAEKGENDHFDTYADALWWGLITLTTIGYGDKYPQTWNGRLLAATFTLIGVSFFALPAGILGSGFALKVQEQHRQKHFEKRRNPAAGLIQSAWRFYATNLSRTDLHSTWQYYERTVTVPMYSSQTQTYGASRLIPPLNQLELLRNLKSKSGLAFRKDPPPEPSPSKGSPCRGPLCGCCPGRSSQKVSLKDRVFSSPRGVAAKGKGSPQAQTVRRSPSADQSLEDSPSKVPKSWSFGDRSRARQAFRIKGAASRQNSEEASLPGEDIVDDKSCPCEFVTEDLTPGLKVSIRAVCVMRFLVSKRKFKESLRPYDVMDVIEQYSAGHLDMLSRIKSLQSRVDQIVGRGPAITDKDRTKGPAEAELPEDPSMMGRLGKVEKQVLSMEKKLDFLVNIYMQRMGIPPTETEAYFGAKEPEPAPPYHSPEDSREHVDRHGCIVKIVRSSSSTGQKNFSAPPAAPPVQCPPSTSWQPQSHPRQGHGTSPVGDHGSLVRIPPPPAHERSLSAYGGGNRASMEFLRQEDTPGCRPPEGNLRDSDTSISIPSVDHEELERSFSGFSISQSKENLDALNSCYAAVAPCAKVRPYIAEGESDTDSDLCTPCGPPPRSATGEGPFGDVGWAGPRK
Sequence (O43525 whole entry): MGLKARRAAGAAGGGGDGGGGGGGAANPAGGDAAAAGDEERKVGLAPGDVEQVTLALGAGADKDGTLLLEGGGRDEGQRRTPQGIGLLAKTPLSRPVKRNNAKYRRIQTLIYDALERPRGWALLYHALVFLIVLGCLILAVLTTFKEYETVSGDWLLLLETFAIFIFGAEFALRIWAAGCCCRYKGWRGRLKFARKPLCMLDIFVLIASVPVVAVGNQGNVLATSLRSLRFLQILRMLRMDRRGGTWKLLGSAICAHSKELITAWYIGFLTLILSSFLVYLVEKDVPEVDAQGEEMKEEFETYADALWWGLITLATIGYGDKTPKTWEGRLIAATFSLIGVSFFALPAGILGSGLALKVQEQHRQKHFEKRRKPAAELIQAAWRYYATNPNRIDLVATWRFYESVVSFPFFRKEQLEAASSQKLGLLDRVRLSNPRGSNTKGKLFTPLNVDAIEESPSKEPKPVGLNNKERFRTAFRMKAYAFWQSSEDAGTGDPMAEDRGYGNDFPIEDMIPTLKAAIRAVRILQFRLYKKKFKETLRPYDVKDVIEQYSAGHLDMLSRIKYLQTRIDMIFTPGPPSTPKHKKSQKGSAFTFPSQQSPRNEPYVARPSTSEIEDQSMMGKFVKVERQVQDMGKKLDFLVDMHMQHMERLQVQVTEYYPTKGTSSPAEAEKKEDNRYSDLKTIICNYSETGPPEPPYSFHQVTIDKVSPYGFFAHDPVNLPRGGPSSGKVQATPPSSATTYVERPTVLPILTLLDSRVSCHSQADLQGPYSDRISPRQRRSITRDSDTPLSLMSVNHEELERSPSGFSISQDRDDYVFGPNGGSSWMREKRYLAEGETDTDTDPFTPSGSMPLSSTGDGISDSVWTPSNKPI
Readout Name: EC50 (nM)

CCSc1nc(N2CCOC[C@H]2C)cc(C)c1C(=O)NCc1ccc(F)cc1 :: 97
Cc1cc(N2CCOCC2)nc(SC(C)C)c1C(=O)NCc1cccc(F)c1 :: 99
Cc1cc(N2CCOC[C@H]2C)nc(C2CC2)c1C(=O)NCc1ccc(F)cc1 :: 103

* * *

biological target: KCNQ2/3 channels (Homo sapiens, UniProt O43525+O43526); construct: expressed in transfected cells; test: Fluorescence assay using a voltage sensitive dye (fluorimetry); assay type: cell-based; conditions: CHO-K1, plateau effect relative to saturated retigabine (50 μM) = 100%; CHO-K1 cells expressing KCNQ2/3; negative values = antagonistic; read-out: Fluorimetry % efficacy (retigabine = 100%)
Readout Name: Emax (%)

As a guide, the following entries are already answered.
COC[C@H]1COCCN1c1cc(C)c(C(=O)NCc2ccc(Cl)cc2)c(C(C)C)n1 :: 129
CCSc1nc(N2CCOC(C)(C)C2)cc(C)c1C(=O)NCc1cccc(F)c1 :: 137
Cc1cc(N2CCOCC2)nc(OCC2CC2)c1C(=O)NCc1ccc(F)cc1 :: 102
CCSc1nc(N(C)CCOC)cc(C)c1C(=O)NCCCC(C)(C)C :: 225

P: CCSc1nc(N2CCOCC2)cc(C)c1C(=O)NCCCc1ccccc1
Q: CCSc1nc(N(C)CC2CCCCO2)cc(C)c1C(=O)NCc1cccc(F)c1 (stereo not shown)
R: CCSc1nc(N(C)Cc2ccncc2)cc(C)c1C(=O)NCc1cccc(F)c1
Problem: Rank by Emax (largest to smallest). Response field: labels, in requested order.
Result: P, Q, R

* * *

biological target: KCNQ2/3 channels (Homo sapiens, UniProt O43525+O43526); construct: expressed in transfected cells; assay: Fluorescence assay using a voltage sensitive dye (fluorimetry); format: cell-based; conditions: CHO-K1 cells expressing KCNQ2/3; IC50 where % efficacy is negative; read-out: Fluorimetry EC50/IC50
Readout Name: EC50 (nM)

CCSc1nc(N2CCOCC2)cc(C)c1C(=O)NCc1cccc(C(F)(F)F)c1 :: 70

1: CCOc1nc(N2CCOC[C@H]2C)cc(C)c1C(=O)NCCCC(C)(C)C
2: CCSc1nc(N2CCOC(CC)C2)cc(C)c1C(=O)NCc1cccc(F)c1 (stereo not shown)
3: CCSc1nc(N2CCOC[C@H]2COC)cc(C)c1C(=O)NCc1ccc(F)cc1
Problem: Please produce an ascending ranking of these compounds based on EC50. Response field: labels, in requested order.
Result: 1, 2, 3

P: CCSc1nc(N2CCOCC2)cc(C)c1C(=O)NCc1ccc(C#N)cc1
Q: CCSc1nc(N(C)CC2CCCCO2)cc(C)c1C(=O)NCc1cccc(F)c1 (stereo not shown)
Problem: Kindly identify the item with the lower EC50 figure among these two: P and Q Field: selected label. Fill in the label of the entry you choose.
Result: Q
(Q: 269 nM, P: 673 nM)

* * *

target: KCNQ2/3 channels (Homo sapiens, UniProt O43525+O43526); construct: expressed in transfected cells; assay: Fluorescence assay using a voltage sensitive dye (fluorimetry); assay type: cell-based; settings: CHO-K1, plateau effect relative to saturated retigabine (50 μM) = 100%; CHO-K1 cells expressing KCNQ2/3; negative values = antagonistic; read-out: Fluorimetry % efficacy (retigabine = 100%)
Readout Name: Emax (%)

CCSc1nc(N2CCO[C@H](COC)C2)cc(C)c1C(=O)NCc1cccc(F)c1 [Example 224] :: 136
CCSc1nc(N2CCOCC2)cc(C)c1C(=O)NCCC1CCCC1 [Example 44] :: 116

I: CCOc1nc(N2CCOCC2)cc(C)c1C(=O)NCc1ccccc1-c1ccccc1 [Example 92]
II: CCSc1nc(N2CCOC(CC)C2)cc(C)c1C(=O)NCc1cccc(F)c1 (centres unmarked) [Example 167]
III: CCSc1nc(N2CCOCC2)cc(C)c1C(=O)NCc1ccc(F)c(CO)c1 [Example 353]
Problem: Please produce an ascending ranking of these compounds based on Emax. Response field: labels, in requested order.
Result: I, III, II
